EC50 values for the compounds below.
Test system: P. falciparum W2
ASSAY COMMENT: P. falciparum W2 assay
Assay type: cell-based
STATED CONDITIONS: strain W2; read-out: P. falciparum W2 (EC50)
Answer format: numeric, nM implied, no suffix.

O=S(=O)(c1ccc(-c2ccc3ncnc(Nc4ccc(OCc5cccc(F)c5)c(Cl)c4)c3c2)cc1)N1CCNCC1 [Compound 10s]    200
CN1CCN(S(=O)(=O)c2cccc(-c3ccc4ncnc(Nc5ccc(OCc6cccc(F)c6)c(Cl)c5)c4c3)c2)CC1    84
CC(C)(C)OC(=O)N1CCN(S(=O)(=O)c2ccc(-c3ccc4ncnc(Nc5ccc(OCc6cccc(F)c6)c(Cl)c5)c4c3)cc2)CC1    580
CN1CCN(S(=O)(=O)c2ccc(-c3ccc4ncnc(Nc5ccc6cnn(Cc7cccc(F)c7)c6c5)c4c3)cc2)CC1    90

// lookup EC50 for O=S(=O)(c1cccc(-c2ccc3ncnc(Nc4ccc(OCc5cccc(F)c5)c(Cl)c4)c3c2)c1)N1CCCC1 [Compound 10o]
480

// lookup EC50 for `CC(C)(C)OC(=O)N1CCN(c2ccc(-c3ccc4ncnc(Nc5ccc(OCc6cccc(F)c6)c(Cl)c5)c4c3)cc2)CC1`
3200

// lookup EC50 for `Fc1cccc(COc2ccc(Nc3ncnc4ccc(-c5cccc(N6CCSCC6)c5)cc34)cc2Cl)c1`
1300
